Each recorded value in this set is attributed to patent US20200087364A1.

Target: T1, HLA-A*01:01 (human)
T1 construct: MHC class I monomer first loaded with a UV-sensitive peptide (not identified) that is cleaved by UV irradiation and exchanged for the tested peptide; captured on streptavidin plates, detected with anti-β2m; also called peptide-receptive MHC molecules
Experiment: UV-ligand exchange, anti-b2m ELISA
Below, each entry is listed alongside its reported peptide exchange yield.

binder=SLMVASLTY endpoint_name="peptide exchange yield" value_measured="20 to 50%"
binder=SLIIDDTEY endpoint_name="peptide exchange yield" value_measured="20 to 50%"
binder=VTKYIAGPY endpoint_name="peptide exchange yield" value_measured="20 to 50%"
binder=TVTDGTHTDFY endpoint_name="peptide exchange yield" value_measured="20 to 50%"
binder=ITDTLIHLM endpoint_name="peptide exchange yield" value_measured="50 to 75%"
binder=IPVHDSVGVTY endpoint_name="peptide exchange yield" value_measured="50 to 75%"
binder=DTDDRELRY endpoint_name="peptide exchange yield" value_measured="50 to 75%"
binder=YTELVEEKY endpoint_name="peptide exchange yield" value_measured="50 to 75%"
binder=VPFNLITEY endpoint_name="peptide exchange yield" value_measured="10 to 20%"
binder=GSNPARYEF endpoint_name="peptide exchange yield" value_measured="20 to 50%"

# input Find the recorded peptide exchange yield belonging to `ESMDIFPLGW` and report it.
# output 20 to 50%

# input Returns the measured peptide exchange yield for the input binder. Input: `FSELNPLALY`
# output > 75%

# input # get_value(readout='peptide exchange yield', item= `TSRAANIPGY` )
# output 10 to 20%

# input Entry under review: `AVMEAAFVY` . Reported peptide exchange yield?
# output 50 to 75%

# input Consider the binder `ESAPKEVSRY` and give its measured peptide exchange yield.
# output 20 to 50%

# input Request the reported peptide exchange yield associated with `EDLLEVLDMY`
# output 20 to 50%
